Entry source: patent US20250186602A1

Recorded measurements of Kd, one per entry
# ASSAY_SYSTEM: T1, hEva1-mouse Fc (human, UniProt O60487 27-154, limits assumed)
# T1 construct: SPR analyte; the '1' is probably the first concentration (1 nM); also called hEva1-mouse Fc1 (so in the source); not shown: mouse Fc
# T1 sequence: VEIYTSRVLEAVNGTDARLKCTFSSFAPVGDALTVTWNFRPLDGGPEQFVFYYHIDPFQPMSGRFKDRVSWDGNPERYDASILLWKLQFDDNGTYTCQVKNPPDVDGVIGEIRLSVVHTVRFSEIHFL
# METHOD_SUMMARY: SPR (BiaCore T200), single-cycle kinetics; antibody captured by anti-human IgG on CM5 chip, hEva1-mouse Fc as analyte
Write the figure, then the unit, nothing else.

{"BINDER": "humanized B2E5-48 antibody H2-L3 (antibody, human IgG1, V domains shown, Human IgG1 heavy chain and human kappa light chain vectors; made in HEK293T cells) VH: QVQLVQSGAEVKKPGASVKVSCKASGYTFTNYWMHWVRQAPGQGLEWMGEINPTNGGTDYNEKFQGRVTMTVDKSTSTAYMELSSLRSEDTAVYYCTIYTTALDYWGQGTLVTVSS VL: QIQLTQSPSFLSASVGDRVTITCRASSSVGYMYWYQQKPGKAPKPLIYVTSNLASGVPSRFSGSGSGTEYTLTISSLQPEDFATYYCQQWSSNPPTFGQGTKLEIK", "RESULT": "428 nM"}
{"BINDER": "humanized B2E5-48 antibody H3-L3 (antibody, human IgG1, V domains shown, Human IgG1 heavy chain and human kappa light chain vectors; made in HEK293T cells) VH: QVQLVQSGSELKKPGASVKVSCKASGYTFTNYWMHWVRQAPGQGLEWIGEINPTNGGTDYNEGFTGRFVLSVDKSSSTAYLQISSLKAEDTAVYYCTIYTTALDYWGQGTLVTVSS VL: QIQLTQSPSFLSASVGDRVTITCRASSSVGYMYWYQQKPGKAPKPLIYVTSNLASGVPSRFSGSGSGTEYTLTISSLQPEDFATYYCQQWSSNPPTFGQGTKLEIK", "RESULT": "835 nM"}

// next item, Kd requested
[ask] Endpoint output: Kd of humanized B2E5-48 antibody H4-L4 (antibody, human IgG1, V domains shown, Human IgG1 heavy chain and human kappa light chain vectors; made in HEK293T cells) VH: QVQLVQSGSELKKPGASVKVSCKASGYTFTNYWMHWVRQAPGQGLEWMGEINPTNGGTDYNEGFTGRFVFSVDKSVSTAYLQISSLKAEDTAVYYCTIYTTALDYWGQGTLVTVSS VL: DIQLTQSPSFLSASVGDRVTITCRASSSVGYMYWYQQKPGKAPKPLIYVTSNLASGVPSRFSGSGSGTEYTLTISSLQPEDFATYYCQQWSSNPPTFGQGTKLEIK . Value?
[reply] 994 nM
